Attribution: ChEMBL document CHEMBL1221321

test system: Streptococcus pyogenes; assay: Antibacterial activity against efflux-mediated macrolide-resistance Streptococcus pyogenes 2 by broth microdilution method; format: functional
Assay Readout: MIC

Query block: I'd like to know its MIC. The molecule in question is CC[C@H]1OC(=O)[C@H](C)[C@@H](O[C@H]2C[C@@](C)(OC)[C@@H](OCCCOCCCCc3ccc4c(c3)c(=O)c(C(=O)O)cn4N(C)C)[C@H](C)O2)[C@H](C)[C@@H](O[C@@H]2O[C@H](C)C[C@H](N(C)C)[C@H]2O)[C@](C)(O)C[C@@H](C)CN(C)[C@H](C)[C@@H](O)[C@]1(C)O
Result block: ≤ 0.125 µg/mL

Query block: I'd like to know its MIC. The molecule in question is CC[C@H]1OC(=O)[C@H](C)[C@@H](O[C@H]2C[C@@](C)(OC)[C@@H](OCCCOCCCCCc3ccc4c(c3)c(=O)c(C(=O)O)cn4N(C)C)[C@H](C)O2)[C@H](C)[C@@H](O[C@@H]2O[C@H](C)C[C@H](N(C)C)[C@H]2O)[C@](C)(O)C[C@@H](C)CN(C)[C@H](C)[C@@H](O)[C@]1(C)O
Result block: ≤ 0.125 µg/mL

Query block: I'd like to know its MIC. The molecule in question is CCCCn1cc(C(=O)O)c(=O)c2cc(CCCOCCCO[C@H]3[C@H](C)O[C@@H](O[C@H]4[C@H](C)[C@@H](O[C@@H]5O[C@H](C)C[C@H](N(C)C)[C@H]5O)[C@](C)(O)C[C@@H](C)CN(C)[C@H](C)[C@@H](O)[C@](C)(O)[C@@H](CC)OC(=O)[C@@H]4C)C[C@@]3(C)OC)ccc21
Result block: ≤ 0.125 µg/mL

Query block: I'd like to know its MIC. The molecule in question is CC[C@H]1OC(=O)[C@H](C)[C@@H](O[C@H]2C[C@@](C)(OC)[C@@H](OCCCOCCCCc3ccc4c(c3)c(=O)c(C(=O)O)cn4CC)[C@H](C)O2)[C@H](C)[C@@H](O[C@@H]2O[C@H](C)C[C@H](N(C)C)[C@H]2O)[C@](C)(O)C[C@@H](C)CN(C)[C@H](C)[C@@H](O)[C@]1(C)O
Result block: ≤ 0.125 µg/mL

Query block: I'd like to know its MIC. The molecule in question is CC[C@H]1OC(=O)[C@H](C)C(=O)[C@H](C)[C@@H](O[C@@H]2O[C@H](C)C[C@H](N(C)C)[C@H]2O)[C@](C)(OC)C[C@@H](C)C(=O)[C@H](C)[C@H]2N(CCCCn3cnc(-c4cccnc4)c3)C(=O)O[C@]12C
Result block: 0.5 µg/mL

Query block: I'd like to know its MIC. The molecule in question is CC[C@H]1OC(=O)[C@H](C)[C@@H](O[C@H]2C[C@@](C)(OC)[C@@H](OCCCOCCCc3ccc4c(c3)c(=O)c(C(=O)O)cn4C3CC3)[C@H](C)O2)[C@H](C)[C@@H](O[C@@H]2O[C@H](C)C[C@H](N(C)C)[C@H]2O)[C@](C)(O)C[C@@H](C)CN(C)[C@H](C)[C@@H](O)[C@]1(C)O
Result block: ≤ 0.125 µg/mL

Query block: I'd like to know its MIC. The molecule in question is CC[C@H]1OC(=O)[C@H](C)[C@@H](O[C@H]2C[C@@](C)(OC)[C@@H](OCCCOCCCCc3cc4c5c(c3)c(=O)c(C(=O)O)cn5C(C)(C)CO4)[C@H](C)O2)[C@H](C)[C@@H](O[C@@H]2O[C@H](C)C[C@H](N(C)C)[C@H]2O)[C@](C)(O)C[C@@H](C)CN(C)[C@H](C)[C@@H](O)[C@]1(C)O
Result block: ≤ 0.125 µg/mL

Query block: I'd like to know its MIC. The molecule in question is CC[C@H]1OC(=O)[C@H](C)[C@@H](O[C@H]2C[C@@](C)(OC)[C@@H](O)[C@H](C)O2)[C@H](C)[C@@H](O[C@@H]2O[C@H](C)C[C@H](N(C)C)[C@H]2O)[C@](C)(O)C[C@@H](C)CN(C)[C@H](C)[C@@H](O)[C@]1(C)O
Result block: 8 µg/mL

Query block: I'd like to know its MIC. The molecule in question is CC[C@H]1OC(=O)[C@H](C)[C@@H](O[C@H]2C[C@@](C)(OC)[C@@H](OCCCOCCCCc3ccc4c(c3)c(=O)c(C(=O)O)cn4C3CC3)[C@H](C)O2)[C@H](C)[C@@H](O[C@@H]2O[C@H](C)C[C@H](N(C)C)[C@H]2O)[C@](C)(O)C[C@@H](C)CN(C)[C@H](C)[C@@H](O)[C@]1(C)O
Result block: ≤ 0.125 µg/mL

Query block: I'd like to know its MIC. The molecule in question is CC[C@H]1OC(=O)[C@H](C)[C@@H](O[C@H]2C[C@@](C)(OC)[C@@H](OCCCOCCCCCc3ccc4c(c3)c(=O)c(C(=O)O)cn4CC)[C@H](C)O2)[C@H](C)[C@@H](O[C@@H]2O[C@H](C)C[C@H](N(C)C)[C@H]2O)[C@](C)(O)C[C@@H](C)CN(C)[C@H](C)[C@@H](O)[C@]1(C)O
Result block: ≤ 0.125 µg/mL

Query block: I'd like to know its MIC. The molecule in question is CC[C@H]1OC(=O)[C@H](C)[C@@H](O[C@H]2C[C@@](C)(OC)[C@@H](OCCCOCCCc3ccc4c(c3)c(=O)c(C(=O)O)cn4CCN(C)C)[C@H](C)O2)[C@H](C)[C@@H](O[C@@H]2O[C@H](C)C[C@H](N(C)C)[C@H]2O)[C@](C)(O)C[C@@H](C)CN(C)[C@H](C)[C@@H](O)[C@]1(C)O
Result block: 0.25 µg/mL
